Consider the following binders and their measured pEC50 readings.
SYSTEM_UNDER_TEST: T1, human Claudin18.2 (human)
T1 construct: also called CLDN18.2
PROCEDURE_DETAILS: cell ELISA, Claudin18.2-expressing HEK293T cells
Worth noting: pEC50 values are minus log10 of concentrations stated in mol/L.

# example entries with known answers
234C9G5 (antibody, V domains shown, mouse hybridoma mAb) VH: QAYLQQSGAELVRSGASVKMSCKASGYAFTSHNMHWVKQTPGQGLEWIGYISPGNGYTNYNQKFRGKATLTADTSSSTAYMQIGSLTSEDSAVYFCTRDYYGNSFAYWGQGTLVTVSA VL: DIVMTQSPSSLTEKAGERVSMSCKSSQSLFNSGNQKNYLTWYQQKPGQPPKLLIYWASTRESGVPDRFTGSGSGTDFTLTISSVQAEDLAVYYCQNNYWFPFTFGAGTKLELK    9.25
411G12G1 (antibody, V domains shown, mouse hybridoma mAb) VH: DVQLVESGGGLVQPGGSRKLSCAASGFTFSGFGMHWIRQAPEKGLEWVAYISSGSRPIYYADTVKGRFTISRDNPKNTLFLQMTSLRSEDTAMYFCARFYYGNSFDHWGQGTLVTVSA VL: DIVMTQSPSFLTVTAGEKVTMSCKSSQSLLNSGNQKNYLTWYQQKPGQPPKLLIYWASTRESGVPDRFTGSGSGTDFTLTISSVQAEDLAVYYCQNDYSFPLTFGAGTKLELK    8.46

**Q:** Please give the measured pEC50 for this binder: 410A9A9 (antibody, V domains shown, mouse hybridoma mAb) VH: DVQLVESGGGLVQPGGSRKLSCAASGFTFSSFGMHWVRQAPEKGLEWVAYISSGSSPIYYADTVKGRFTISRDNPKNTLFLQMTSLRSEDTAMYFCATFYYGNSFAYWGQGTLVTVSA VL: DIVMTQSPSSLTVTAGEKVTMSCKSSQTLLNSGNQKNYLTWYQQKSGQPPKLLIYWASTRESGVPDRFTGSGSGTDFTLTISSVQAEDLAVYYCQNAYSYPVTFGSGTKVELK
**A:** 8.21
